Data provenance: patent US20220041641A1

target: CutC from Clostridium sporogenes (Clostridium sporogenes); assay: Cell-based assay for TMA production from a native producer (C. sporogenes); settings: read-out: IC50 Whole cell C. sporogenes; d9-TMA from 1 mM d9-choline, 5 h, 37° C.; run once; value 10 given when no fit or % TMA remaining at 10 μM higher than 15%
Sequence (A0ABD6RTF0 entry or part of it): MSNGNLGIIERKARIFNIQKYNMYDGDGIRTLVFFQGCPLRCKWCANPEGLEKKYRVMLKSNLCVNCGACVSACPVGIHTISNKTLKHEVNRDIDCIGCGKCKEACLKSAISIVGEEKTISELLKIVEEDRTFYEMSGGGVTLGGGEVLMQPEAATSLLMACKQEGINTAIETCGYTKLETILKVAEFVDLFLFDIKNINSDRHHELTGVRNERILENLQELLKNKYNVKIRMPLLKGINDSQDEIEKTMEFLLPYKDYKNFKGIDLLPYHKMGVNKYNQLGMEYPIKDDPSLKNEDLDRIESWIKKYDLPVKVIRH
Sequence (A0AAE4Z0A8 entry or part of it): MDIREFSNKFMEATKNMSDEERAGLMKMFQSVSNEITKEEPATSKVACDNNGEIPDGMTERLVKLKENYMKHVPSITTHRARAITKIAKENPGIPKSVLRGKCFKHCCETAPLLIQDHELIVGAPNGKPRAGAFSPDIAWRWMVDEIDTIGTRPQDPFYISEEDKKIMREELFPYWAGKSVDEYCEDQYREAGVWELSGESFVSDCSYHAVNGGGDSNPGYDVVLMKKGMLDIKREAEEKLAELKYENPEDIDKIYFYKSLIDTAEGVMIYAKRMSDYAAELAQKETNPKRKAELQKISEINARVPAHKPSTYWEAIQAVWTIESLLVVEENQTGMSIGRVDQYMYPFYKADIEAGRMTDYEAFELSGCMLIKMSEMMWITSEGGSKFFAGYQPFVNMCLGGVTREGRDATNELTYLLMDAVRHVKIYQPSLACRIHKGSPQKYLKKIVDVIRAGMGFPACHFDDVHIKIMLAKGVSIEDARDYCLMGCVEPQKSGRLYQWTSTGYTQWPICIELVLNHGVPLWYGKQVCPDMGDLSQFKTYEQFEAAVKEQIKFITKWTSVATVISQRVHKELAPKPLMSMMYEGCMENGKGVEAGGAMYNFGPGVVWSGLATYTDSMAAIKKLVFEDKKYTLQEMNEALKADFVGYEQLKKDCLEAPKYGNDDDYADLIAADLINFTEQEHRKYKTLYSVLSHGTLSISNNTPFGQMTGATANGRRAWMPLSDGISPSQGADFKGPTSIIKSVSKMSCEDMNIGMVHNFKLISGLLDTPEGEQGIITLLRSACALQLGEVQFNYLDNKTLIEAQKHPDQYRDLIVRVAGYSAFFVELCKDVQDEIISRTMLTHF
pIC50: −log10 of the molar value.
readout kind: pIC50

Here is how some compounds turned out for pIC50.
# input compound: C[N+]1(CF)CC[C@H](O)C1 (some centres unmarked) ; wanted: its pIC50
5.79

Consider next the compound C#CC(C)[N+](C)(C)C (centres unmarked) in the same way.
6.36

Continuing:
Recorded pIC50 for "C[N+]1(C)CC[C@@H](O)C1" , please?
≤ 5.00

Record: "C[N+](C)(CCO)CC1CC1.[Br-]"
≤ 5.00

Now consider C#CC[N+]1(C)CCC[C@H]1CO (some centres unmarked) .
5.61

Another compound: "C#CC[N@@+]1(C)CCC[C@@H]1CO"
≤ 5.00

Then what about the compound C[N+]1(C)CCCC1CO (centres unmarked) ?
≤ 5.00

Let us now turn to C#CC1CC[N+](C)(C)C1 (centres unmarked)
≤ 5.00

Queued: C[S+]([O-])C[N+](C)(C)C (centres unmarked)
≤ 5.00

Try the compound "C[N+](C)(C)CC#CCO"
≤ 5.00

Moving on to "C[N+](C)(CCO)c1ccccc1"
5.86

====

Reported pIC50 is given for each of the following compounds.
target: CutC from Proteus mirabilis (Proteus mirabilis, UniProt B4EYG1); assay: Cell-based assay for TMA production from a native producer (P. mirabilis); settings: d9-TMA from 1 mM d9-choline, 5 h, 37° C.; value 10 given when no fit or % TMA remaining at 10 μM higher than 15%; read-out: Average IC50 Whole cell P. mirabilis
Sequence (B4EYG1 entry or part of it): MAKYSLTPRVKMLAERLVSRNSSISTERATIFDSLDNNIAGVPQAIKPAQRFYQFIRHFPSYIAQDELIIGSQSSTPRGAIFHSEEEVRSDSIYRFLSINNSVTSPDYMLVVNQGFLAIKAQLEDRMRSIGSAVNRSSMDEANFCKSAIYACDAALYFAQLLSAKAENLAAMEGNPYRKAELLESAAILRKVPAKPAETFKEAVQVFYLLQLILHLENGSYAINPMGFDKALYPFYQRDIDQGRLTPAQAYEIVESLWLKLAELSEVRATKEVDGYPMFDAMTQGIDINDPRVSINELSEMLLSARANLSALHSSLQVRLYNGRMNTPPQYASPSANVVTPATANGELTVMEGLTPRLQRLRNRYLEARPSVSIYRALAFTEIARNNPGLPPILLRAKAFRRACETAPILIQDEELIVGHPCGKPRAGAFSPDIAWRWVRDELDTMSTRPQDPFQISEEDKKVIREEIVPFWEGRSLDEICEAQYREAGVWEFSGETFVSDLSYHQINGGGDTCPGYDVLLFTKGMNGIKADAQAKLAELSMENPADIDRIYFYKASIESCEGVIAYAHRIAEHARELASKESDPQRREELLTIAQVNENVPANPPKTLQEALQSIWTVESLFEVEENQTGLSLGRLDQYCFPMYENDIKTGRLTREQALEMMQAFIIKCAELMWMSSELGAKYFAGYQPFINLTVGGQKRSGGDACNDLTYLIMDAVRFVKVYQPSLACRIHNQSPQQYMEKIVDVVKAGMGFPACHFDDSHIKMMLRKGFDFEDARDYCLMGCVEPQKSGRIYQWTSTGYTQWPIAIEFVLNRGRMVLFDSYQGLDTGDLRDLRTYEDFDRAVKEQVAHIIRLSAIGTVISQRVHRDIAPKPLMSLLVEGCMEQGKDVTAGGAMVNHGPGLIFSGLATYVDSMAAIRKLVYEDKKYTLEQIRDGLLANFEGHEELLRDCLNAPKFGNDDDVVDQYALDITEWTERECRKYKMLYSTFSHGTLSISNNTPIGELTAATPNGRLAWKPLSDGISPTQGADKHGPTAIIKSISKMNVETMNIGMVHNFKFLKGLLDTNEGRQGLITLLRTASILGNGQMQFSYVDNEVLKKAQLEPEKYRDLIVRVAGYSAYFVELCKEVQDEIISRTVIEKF
Sequence (B4EYG0 entry or part of it, further chain): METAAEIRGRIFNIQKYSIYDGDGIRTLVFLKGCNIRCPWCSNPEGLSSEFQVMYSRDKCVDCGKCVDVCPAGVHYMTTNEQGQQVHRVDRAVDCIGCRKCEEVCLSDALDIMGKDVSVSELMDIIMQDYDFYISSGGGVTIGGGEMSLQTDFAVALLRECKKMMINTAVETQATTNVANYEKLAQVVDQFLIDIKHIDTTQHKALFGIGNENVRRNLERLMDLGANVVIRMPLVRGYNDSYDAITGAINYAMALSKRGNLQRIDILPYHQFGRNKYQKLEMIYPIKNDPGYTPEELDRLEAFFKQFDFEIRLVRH
Please report pIC50 as the negative decimal logarithm of the molar concentration, giving only the number.

# get_value(readout='pIC50', item= C#CC[N+](C)(C)CCCCO.O=C([O-])C(F)(F)F [Compound 141, Trifluoroacetate] )
5.28

***
State the recorded pIC50 for this entry: C#CC[N+](C)(C)CC=C [Compound 211, 2,2,2-trifluoroacetate]
6.68

====

target: CutC from Proteus mirabilis (Proteus mirabilis, UniProt B4EYG1); test: Cell-based assay for TMA production from a native producer (P. mirabilis); details: d9-TMA from 1 mM d9-choline, 5 h, 37° C.; value 10 given when no fit or % TMA remaining at 10 μM higher than 15%; read-out: Average IC50 Whole cell P. mirabilis
readout kind: IC50

Past entries and their recorded results:
Entry C#CC[N+](C)(C)CCO[C@@H]1O[C@H](CO)[C@@H](O)[C@H](O)[C@H]1O [Compound 106, 2,2,2-trifluoroacetate] : reported IC50 = ?
≥ 10 µM

Now consider "C[N+](C)(CCO)c1ccccc1" .
≥ 10 µM

More entries:
Item under review: "C[N+]12CCC(CC1)[C@H](O)C2" . Reported IC50?
≥ 10 µM

For "C#CC[N+](C)(C)CC(=O)NS(C)(=O)=O" then?
> 10 µM

====

target: CutC from Proteus mirabilis (Proteus mirabilis, UniProt B4EYG1); assay: Cell-based assay for TMA production from a native producer (P. mirabilis); details: d9-TMA from 1 mM d9-choline, 5 h, 37° C.; value 10 given when no fit or % TMA remaining at 10 μM higher than 15%; read-out: Average IC50 Whole cell P. mirabilis
pIC50: −log10 of the molar value. Structures can show the parent of a compound that is named as a salt.
Below, each of the compounds is paired with its reported pIC50 value.

Give its pIC50 value. Item: C[N+](C)(CCO)CC1COC1 [Compound 184]
< 5.00

Now consider CC(=O)OC[C@H]1O[C@@H](OCC[N+](C)(CF)C2CC2)[C@H](OC(C)=O)[C@@H](OC(C)=O)[C@@H]1OC(C)=O.[I-] (stereo partly drawn) [Compound 86] and answer again.
≤ 5.00

Similarly, C[N+]1(C)CC[C@@H](O)C1 [Compound 116] ?
≤ 5.00

Try the compound C#CC[N+](C)(C)CCS(=O)(=O)O [Compound 221, Trifluoroacetate]
< 5.00

Try the compound COCC[N+](C)(C)CF [Compound 228]
< 5.00

Likewise for C#CC1CC[N+](C)(C)C1 (stereo not drawn) [Compound 137] ?
≤ 5.00

// same read-out, input: C[N+](C)(CCO)C1COC1 [Compound 219, trifluoroacetate]
< 5.00

Also C#CC[N+](C)(C)CCO[C@@H]1OC[C@@H](OC(C)=O)[C@H](OC(C)=O)[C@H]1OC(C)=O.[I-] [Compound 8] , if possible.
≤ 5.00

Follow-up item: C[N+](C)(CCO)CC1CCC1 [Compound 194]
< 5.00

====

IC50 reference
molecular target: CutC from Proteus mirabilis (Proteus mirabilis, UniProt B4EYG1); test: Cell-based assay for TMA production from a native producer (P. mirabilis); details: d9-TMA from 1 mM d9-choline, 5 h, 37° C.; value 10 given when no fit or % TMA remaining at 10 μM higher than 15%; read-out: Average IC50 Whole cell P. mirabilis
Counter-ions that a name gives are not always drawn.

What does the record list as IC50 for C#CC[C@@H](C(=O)O)[N+](C)(C)C [Compound 152] ?
≥ 10 µM

// same read-out, input: C[N+](CF)(CCO)C1CC1 (centres unmarked) [Compound 172]
≥ 10 µM

What would you report for CSC[N+](C)(C)CCO [Compound 195] ?
> 10 µM

Consider next the molecule C[N+]1(C)CCOCC1CO (centres unmarked) [Compound 220] in the same way.
> 10 µM

***
What IC50 value was documented for this molecule, C#CC[N+]1(CF)CCCCC1 [Compound 164] ?
≥ 10 µM

Now the molecule C[N+]12CCC(O)(CC1)CC2 [Compound 149, 4-hydroxy-1-methylquinuclidin-1-ium]
≥ 10 µM

How about this molecule: C[N+]1(C)CCCC1COCc1ccccc1 (centres unmarked) [Compound 134]
≥ 10 µM

Lookup C[N+]1(C)CC[C@H](O)C1 [Compound 117]
≥ 10 µM

Cool, now C#CC[N+](C)(C)CC(=O)O[C@H]1CO[C@H]2[C@@H]1OC[C@H]2OC(=O)C[N+](C)(C)CC#C [Compound 69, bistrifluoroacetate]
≥ 10 µM

Further, for CC(=O)OC[C@H]1O[C@@H](OCC[N+](C)(C)C2CC2)[C@H](OC(C)=O)[C@@H](OC(C)=O)[C@@H]1OC(C)=O.[I-] [Compound 80] ?
≥ 10 µM

And C#CC[N@@+]1(C)CCC[C@@H]1CO [Compound 129] ?
≥ 10 µM

Next molecule up: CC1OC1C[N+](C)(C)C (centres unmarked) [Compound 176]
≥ 10 µM

Now give it for C[N+]1(C)CCCC1CO (centres unmarked) [Compound 110] too.
≥ 10 µM

Now the molecule C#CC[N+](C)(C)CCO[C@H]1CO[C@H]2[C@@H]1OC[C@H]2O [Compound 74, trifluoroacetate]
≥ 10 µM

Again, but for CC(=O)OC[C@@H]1O[C@H](OCC[N+](C)(C)CCl)[C@@H](OC(C)=O)[C@H](OC(C)=O)[C@H]1OC(C)=O (stereo in doubt) [Compound 78]
≥ 10 µM

Consider next the molecule C[N+](C)(CCO)C1CCC1 [Compound 199] in the same way.
> 10 µM

Thanks! And C#CC[N+]1(CF)CCCC1 [Compound 187] ?
0.763 µM

Now try C#CC[N+](C)(C)CC(=C)Cl.[Cl-] [Compound 185] .
0.235 µM

Another: C=C(C[N+](C)(C)CF)C(=O)O [Compound 171]
≥ 10 µM

Another molecule to check: C=CC[N+](C)(C)CC(=C)C(=O)OC [Compound 203, 2,2,2-trifluoroacetate]
1.72 µM

And what about the molecule C[N+](C)(CF)CC(O)O [Compound 146] ?
≥ 10 µM

Here is the next molecule: C[N+](C)(C)CC1CC1 [Compound 178]
≥ 10 µM

What do you have for C#CC[N+]1(CCO)CCCCC1 [Compound 154] ?
≥ 10 µM

Request: C#CC[N+](C)(CF)CCO[C@@H]1O[C@H](COC(C)=O)[C@@H](OC(C)=O)[C@H](OC(C)=O)[C@H]1OC(C)=O (some centres unmarked) [Compound 77]
≥ 10 µM

And for CSCC[N+](C)(C)CF [Compound 229] ?
> 100 µM

And for C#CCC[N+](C)(C)C [Compound 130] ?
3.47 µM

What would you report for C#CC[N+](C)(C)CCN [Compound 183] ?
> 10 µM

Would you mind doing C#CC[N+]1(CF)CC[C@@H](O)C1 (some centres unmarked) [Compound 214] as well?
3.87 µM

====

assay type: in vitro ADME; conditions: simulated gi fluid, 1 µM, pH 1.6
Counter-ions that a name gives are not always drawn.
readout kind: Assay 1- FaSSGF Stability: % Remaining at 1 hr (%)
Number in %, nothing else.

// worked examples, Assay 1- FaSSGF Stability: % Remaining at 1 hr included
Looking for the measured Assay 1- FaSSGF Stability: % Remaining at 1 hr of "C#CC[N+](C)(C)CCO[C@@H]1OC[C@@H](OC(C)=O)[C@H](OC(C)=O)[C@H]1OC(C)=O.[I-]" , can you help?
105.93

Again, but for C#CC[N+](C)(C)CC(=O)OC[C@H]1OC(OC(C)=O)[C@H](OC(C)=O)[C@@H](OC(C)=O)[C@@H]1OC(C)=O.O=C([O-])C(F)(F)F (stereo partly drawn)
114.28

Then this molecule:
Can you share its Assay 1- FaSSGF Stability: % Remaining at 1 hr? I mean this molecule: C#CC[N+](C)(C)CCO[C@H]1CO[C@H]2[C@@H]1OC[C@H]2O [Compound 74, trifluoroacetate]
107.3
